run-description: AUC(0 to infinity) in Wistar Han rat at 1 mg/kg, iv measured upto 24 hrs by LC-MS/MS analysis
Format: ADME, organism-based
Design: route intravenous, dose 1 mg/kg, time <=24
study-conditions: in vivo
Here, each record is paired with measured AUC(0-inf) data.
reported-property: AUC(0-inf) (µM·h)

mol	reported-property	assay-value
COc1ccc(C[C@@H]2NC(=O)[C@H]([C@@H](C)O)NC(=O)[C@@H]3[C@@H]4CCN3C(=O)[C@@H]3Cc5cn(c6ccc(F)cc56)Cc5cn(nn5)-c5cc(cc(c5)CSCCC(=O)N[C@@H](CN)C(=O)N[C@H](C)C(=O)N[C@@H](Cc5cccc(c5)C/C=C/CO4)C(=O)N3)CSCCNC(=O)[C@]3(C)CCCN3C2=O)cc1	AUC(0-inf)	0.964
COc1ccc(C[C@@H]2NC(=O)[C@H]([C@@H](C)OC)NC(=O)[C@@H]3[C@@H]4CCN3C(=O)[C@H](Cc3c[nH]c5ccc(F)cc35)NC(=O)[C@H](Cc3cccc(c3)C/C=C/CO4)NC(=O)[C@@H](C)NC(=O)[C@H](C)NC(=O)CCSCc3cccc(c3)CSCCNC(=O)[C@]3(C)CCCN3C2=O)cc1	AUC(0-inf)	0.442

###

Listed compounds paired with reported Ki
assayed-target: Proprotein convertase subtilisin/kexin type 9 (Homo sapiens)
Sequence (Q8NBP7 31-152 limits assumed): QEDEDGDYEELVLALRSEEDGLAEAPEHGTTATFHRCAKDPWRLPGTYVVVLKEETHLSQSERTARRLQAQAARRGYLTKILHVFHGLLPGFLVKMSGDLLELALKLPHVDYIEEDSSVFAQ
Sequence (Q8NBP7 153-692 limits assumed): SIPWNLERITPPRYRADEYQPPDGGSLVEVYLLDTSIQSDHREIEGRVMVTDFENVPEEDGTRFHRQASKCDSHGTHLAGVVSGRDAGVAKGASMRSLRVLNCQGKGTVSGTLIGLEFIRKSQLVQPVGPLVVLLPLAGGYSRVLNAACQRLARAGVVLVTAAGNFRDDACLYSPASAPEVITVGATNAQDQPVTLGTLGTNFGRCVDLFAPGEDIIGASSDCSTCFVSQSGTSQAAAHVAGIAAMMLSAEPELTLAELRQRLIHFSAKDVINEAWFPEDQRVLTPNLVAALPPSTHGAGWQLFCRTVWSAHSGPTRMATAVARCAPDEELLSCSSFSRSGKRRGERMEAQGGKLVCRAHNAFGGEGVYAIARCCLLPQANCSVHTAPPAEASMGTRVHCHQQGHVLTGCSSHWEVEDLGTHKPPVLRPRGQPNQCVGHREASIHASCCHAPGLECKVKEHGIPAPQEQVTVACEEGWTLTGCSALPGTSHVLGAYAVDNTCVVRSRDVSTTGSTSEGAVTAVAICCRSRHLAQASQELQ
run-description: Inhibition of human PCSK9 using Alexa Fluor […] as substrate incubated for 2 hrs by FRET assay
reported-property: Ki

mol	assay-value
COc1ccc(C[C@@H]2NC(=O)[C@H]([C@@H](C)OC)NC(=O)[C@@H]3[C@@H]4CCN3C(=O)[C@H](Cc3c[nH]c5ccc(F)cc35)NC(=O)[C@H](Cc3cccc(c3)C/C=C\CO4)NC(=O)[C@@H](C)NC(=O)[C@H](C)NC(=O)CCSCc3cccc(c3)CSCCNC(=O)[C@]3(C)CCCN3C2=O)cc1	4.83 nM
COc1ccc(C[C@@H]2NC(=O)[C@H]([C@@H](C)OC)NC(=O)[C@@H]3[C@@H]4CCN3C(=O)[C@H](Cc3c[nH]c5ccc(F)cc35)NC(=O)[C@H](Cc3cccc(c3)C/C=C\CO4)NC(=O)[C@@H](CN)NC(=O)[C@H](C)NC(=O)CCSCc3cccc(c3)CSCCNC(=O)[C@]3(C)CCCN3C2=O)cc1	1.16 nM
COc1ccc(C[C@@H]2NC(=O)[C@H]([C@@H](C)O)NC(=O)[C@@H]3[C@@H]4CCN3C(=O)[C@@H]3Cc5cn(c6ccc(F)cc56)Cc5cn(nn5)-c5cc(cc(c5)CSCCC(=O)N[C@@H](CNC(=O)CCOCCOCCN)C(=O)N[C@H](C)C(=O)N[C@@H](Cc5cccc(c5)C/C=C/CO4)C(=O)N3)CSCCNC(=O)[C@]3(C)CCCN3C2=O)cc1	< 0.129 nM

###

run-description: Clearance in cynomolgus monkey at 1 mg/kg, iv measured upto 72 hrs by LC-MS/MS analysis
Format: ADME, organism-based, Macaca fascicularis
study-conditions: in vivo

mol	clearance [mL/min/kg]
COc1ccc(C[C@@H]2NC(=O)[C@H]([C@@H](C)OC)NC(=O)[C@@H]3[C@@H]4CCN3C(=O)[C@H](Cc3c[nH]c5ccc(F)cc35)NC(=O)[C@H](Cc3cccc(c3)C/C=C/CO4)NC(=O)[C@@H](C)NC(=O)[C@H](C)NC(=O)CCSCc3cccc(c3)CSCCNC(=O)[C@]3(C)CCCN3C2=O)cc1	19.6

// provenance: ChEMBL document CHEMBL5034034
